Target: Cytochrome P450 1A2 (Homo sapiens) (UniProt P05177)
Sequence (P05177 whole entry, looked up): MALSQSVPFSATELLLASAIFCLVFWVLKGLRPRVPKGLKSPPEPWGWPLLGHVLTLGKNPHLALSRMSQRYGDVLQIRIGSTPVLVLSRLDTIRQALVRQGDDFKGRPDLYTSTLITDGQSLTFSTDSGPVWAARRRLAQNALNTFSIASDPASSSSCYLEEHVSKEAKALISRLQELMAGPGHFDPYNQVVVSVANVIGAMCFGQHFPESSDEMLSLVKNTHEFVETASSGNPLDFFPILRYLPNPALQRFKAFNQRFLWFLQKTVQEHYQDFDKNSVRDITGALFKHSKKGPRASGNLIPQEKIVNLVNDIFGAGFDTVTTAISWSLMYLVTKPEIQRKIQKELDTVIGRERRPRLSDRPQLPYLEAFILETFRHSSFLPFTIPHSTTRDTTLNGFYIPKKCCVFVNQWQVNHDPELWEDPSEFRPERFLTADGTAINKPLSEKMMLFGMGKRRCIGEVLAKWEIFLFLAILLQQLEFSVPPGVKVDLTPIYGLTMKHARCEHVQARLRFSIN
Protocol Description: Cytochrome panel assay with activity outcomes
Particulars: recombinant CYP, pro-luciferin dealkylation, luminescence, p450-cyp1a2; series mostly up to 57.1 µM
The whole screen tested about 16,000 compounds, of which about 5,700 (36%) were called active. Inconclusive results (about 24%) are left out. This is one part of the list. Square brackets hold non-standard residues; d marks the D form. Peptide text beside a SMILES is read from it. * marks the point of attachment. ξ: configuration not given here. Cbz = O=C(OCc1ccccc1)*; OBn = c1ccc(CO*)cc1; ξP = O=C(O)C1CCCN1
Endpoint: AC50

Sample records with AC50:
- Molecule: "COc1ccc(Oc2ncc3nc(-c4ccc(F)cc4)c(=O)n(C)c3n2)cc1"
  Target: "Cytochrome P450 1A2 (Homo sapiens) (UniProt P05177)"
  AC50: "2000 nM (active)"
- Molecule: "O=C(CNC(=O)OCc1ccccc1)NCC(=O)N1CCCC1C(=O)OCc1ccccc1 (stereo not drawn) (Cbz-Gly-Gly-[ξP]-OBn)"
  Target: "Cytochrome P450 1A2 (Homo sapiens) (UniProt P05177)"
  AC50: "inactive"
- Molecule: "Cn1c(=O)c(-c2ccc(F)cc2)nc2cnc(Oc3ccccc3)nc21"
  Target: "Cytochrome P450 1A2 (Homo sapiens) (UniProt P05177)"
  AC50: "316 nM (active)"
- Molecule: "O=C(NNC(=O)C1CCCCC1)c1cnccn1"
  Target: "Cytochrome P450 1A2 (Homo sapiens) (UniProt P05177)"
  AC50: "inactive"

Below: the item to evaluate.
Problem: Quick one: give measured AC50 for "C[C@@H](C(=O)O)[C@H]1C[C@]1(C)[C@H](NC(=O)OCc1ccccc1)c1ccccc1"
Solution: inactive

====

Target: Cytochrome P450 1A2 (Homo sapiens)
Protocol Description: Cytochrome panel assay with activity outcomes
Particulars: recombinant CYP, pro-luciferin dealkylation, luminescence, p450-cyp1a2; series mostly up to 57.1 µM
The campaign covered roughly 16,000 compounds. About 5,700 (36%) were called active. Roughly 24% stayed inconclusive and do not appear here. The call rests on the fitted dose curve; in most records, active means well fitted curve in the direction sought with a large enough effect; inconclusive means small, poorly fitted or top-dose-only effect, or effect the other way; inactive means no such curve, though single readings can be large or run the other way. The list shows a part of the results.
Select the correct class. Options are active, inactive and nothing else.

Some entries whose results are on file:
- Structure String: "CCn1c(SCC(=O)NC(=O)NCc2ccco2)nnc1-c1cccs1"
  Target: "Cytochrome P450 1A2 (Homo sapiens)"
  Qualitative Label: "inactive"
- Structure String: "c1ccc(-c2nnc(SCc3nc4ccccc4[nH]3)n2Cc2ccco2)cc1"
  Target: "Cytochrome P450 1A2 (Homo sapiens)"
  Qualitative Label: "active"
- Structure String: "CCOc1cccc2cc(C(N)=O)c(=NCc3ccccc3)oc12"
  Target: "Cytochrome P450 1A2 (Homo sapiens)"
  Qualitative Label: "active"

// switching to the query compound
Problem: I'd appreciate the recorded outcome for "Cc1ccc(S(=O)(=O)NNc2ccccc2)cc1" from this test.
Solution: active

====

Target: Cytochrome P450 1A2 (Homo sapiens) (UniProt P05177)
Protocol Description: Cytochrome panel assay with activity outcomes
Particulars: recombinant CYP, pro-luciferin dealkylation, luminescence, p450-cyp1a2; series mostly up to 57.1 µM
About 5,700 (36%) of roughly 16,000 compounds were called active. About 24% were inconclusive and are not listed. Calls follow the shape of the dose curve; as a rule, active = well fitted curve in the direction sought with a large enough effect; inconclusive = small, poorly fitted or top-dose-only effect, or effect the other way; inactive = no such curve, though single readings can be large or run the other way. The list shows a part of the results.
Thanks in advance; please answer with one of these: active, inactive

- Compound: "COc1cccc(=O)c2c(C)n(-c3cc(C)cc(C)c3)c(C)c12"
  Qualitative Label: "active"
- Compound: "CCCCC(=O)Nc1ccc(C)c(O)c1"
  Qualitative Label: "active"
- Compound: "O=C(NCCNC[C@@H](O)COc1ccc(O)cc1)N1CCOCC1"
  Qualitative Label: "inactive"

Problem: Per the records of this test, what outcome belongs to "CCCCC(=O)Nc1ccc(C(=O)NNC(=O)CCc2ccccc2)cc1" ?
Solution: inactive

Problem: State the result this test recorded for "COC(=O)[C@@]1(Cc2ccccc2)[C@@H]2C(=CC(=O)[C@H]2CC(=O)C(=O)N(C)C)CN1C(=O)c1ccccc1" .
Solution: inactive

Problem: What did this assay record as the result for "Cc1nc2cncnc2n(Cc2ccccc2)c1=O" ?
Solution: active

Problem: Look up the recorded call for "CCC(CC)C(=O)Nc1ccc(C)c(O)c1" in this test.
Solution: active

Problem: Outcome? "CC[C@H]1C(=O)OC[C@H]1Cc1cncn1C"
Solution: inactive

Problem: Which result was noted for this compound in the test: "COCCNC(=O)COc1ccc(OCCNC[C@@H](O)COc2ccccc2)cc1"
Solution: inactive

Problem: Assay result, entry Cc1ccc(OCC(O)CNC(=O)c2ccccc2C(=O)O)cc1 (stereo unspecified) — outcome?
Solution: active

Problem: Check the results log: what was the call for "CCC(CC)C(=O)Nc1cccc(C(=O)Nc2ccc(OC)cc2[N+](=O)[O-])c1" ?
Solution: inactive

====

Target: Cytochrome P450 1A2 (Homo sapiens) (UniProt P05177)
Protocol Description: Cytochrome panel assay with activity outcomes
Particulars: recombinant CYP, pro-luciferin dealkylation, luminescence, p450-cyp1a2; series mostly up to 57.1 µM
Out of some 16,000 compounds screened, about 5,700 (36%) were called active. Another 24% or so got no clear call; they are omitted. The call rests on the fitted dose curve; in most records, active means well fitted curve in the direction sought with a large enough effect; inconclusive means small, poorly fitted or top-dose-only effect, or effect the other way; inactive means no such curve, though single readings can be large or run the other way. The list shows a part of the results.
Pick from class 1 = active, class 0 = inactive when you respond.

Problem: Hello, I am checking results. What call was entered for "CC(=NCCN1CCN(C(=S)Nc2ccccc2)CC1)C1=C(O)CC(C)(C)CC1=O" ?
Solution: class 0

Problem: Kindly provide the recorded test outcome for the following compound: "O=C(CCc1nc2ccccc2c(=O)[nH]1)OCC(=O)N1CCN(S(=O)(=O)c2ccccc2)CC1"
Solution: class 0

Problem: Please state the recorded outcome for this compound: "CCSc1ncc(/C=N/Nc2ccc(F)cc2)n1C"
Solution: class 1

Problem: Check the results log: what was the call for "CC(=O)Nc1ccc(NC(=O)Cn2c(-c3ccc(F)cc3)cnc2SCC(=O)Nc2c(C)cccc2C)cc1" ?
Solution: class 0

Problem: Returns: the outcome recorded for "COc1cccc(-c2cc(NCc3cnc(C)cn3)ncn2)c1" in this assay.
Solution: class 1

====

Target: Cytochrome P450 1A2 (Homo sapiens) (UniProt P05177)
Protocol Description: Cytochrome panel assay with activity outcomes
Particulars: recombinant CYP, pro-luciferin dealkylation, luminescence, p450-cyp1a2; series mostly up to 57.1 µM
In all, about 16,000 compounds went through this assay and about 5,700 (36%) were called active. About 24% were inconclusive and are not listed. The list shows a part of the results.
Endpoint: AC50

# example entries with known answers
- Molecule: "O=C(O)c1c2ccccc2cc2ccccc12"
  AC50: "200 nM (active)"
- Molecule: "CS(=O)(=O)N1CCC2(CC1)CN(C(=O)Nc1cccc(C#N)c1)C2"
  AC50: "inactive"
- Molecule: "O=C(O)c1cc2ccccc2c(Cc2cc3ccccc3c(C(=O)O)c2O)c1O (tested in a mixture with another compound)"
  AC50: "inactive"
- Molecule: "Cc1noc(C)c1-c1nc(N2CCOCC2)c2ccccc2n1"
  AC50: "316 nM (active)"

# input for lookup
Problem: Indicate the recorded AC50 value for this molecule: Cc1cccc(NC2(C(F)(F)F)N=C(c3ccccc3)NC2=O)n1 (stereo not given)
Solution: inactive

====

Target: Cytochrome P450 1A2 (Homo sapiens) (UniProt P05177)
Protocol Description: Cytochrome panel assay with activity outcomes
Particulars: recombinant CYP, pro-luciferin dealkylation, luminescence, p450-cyp1a2; series mostly up to 57.1 µM
Among all 16,000 compounds or so, about 5,700 (36%) were called active. Inconclusive results (about 24%) are left out. Calls follow the shape of the dose curve; as a rule, active = well fitted curve in the direction sought with a large enough effect; inconclusive = small, poorly fitted or top-dose-only effect, or effect the other way; inactive = no such curve, though single readings can be large or run the other way. This is one part of the list.
Please answer using one outcome listed in active, inactive

Worked set:
- Molecule: "COc1ncc2nc(CCc3ccccc3)c(=O)n(CCC#N)c2n1"
  Target: "Cytochrome P450 1A2 (Homo sapiens) (UniProt P05177)"
  Qualitative Label: "active"
- Molecule: "COc1ccccc1CNc1ncnc2ccc(-c3ccc4c(c3)OCO4)cc12"
  Target: "Cytochrome P450 1A2 (Homo sapiens) (UniProt P05177)"
  Qualitative Label: "active"
- Molecule: "COc1ccccc1CNc1ncnc2ccc(-c3ccc(N(C)C)cc3)cc12"
  Target: "Cytochrome P450 1A2 (Homo sapiens) (UniProt P05177)"
  Qualitative Label: "active"
- Molecule: "COCCn1c(=O)cnc2cnc(Oc3ccccc3)nc21"
  Target: "Cytochrome P450 1A2 (Homo sapiens) (UniProt P05177)"
  Qualitative Label: "active"
- Molecule: "COC(=O)c1ccc(C2C(Oc3ccccc3)C(=O)N2CCc2ccc(OC)c(OC)c2)cc1 (stereo unspecified)"
  Target: "Cytochrome P450 1A2 (Homo sapiens) (UniProt P05177)"
  Qualitative Label: "inactive"

Problem: Check the results log: what was the call for "O=C(CNC(=O)c1ccco1)OCc1c(F)cccc1Cl" ?
Solution: active

Problem: Could you kindly confirm the outcome this assay logged for "Nc1ccccc1Oc1ncc(C(F)(F)F)cc1Cl" ?
Solution: active

Problem: What outcome does the record of this test show for "COc1ccccc1CNc1ncnc2ccc(-c3cccc(C#N)c3)cc12" ?
Solution: active

Problem: Please let me know the test result on file for "COCCn1c(=O)c(C)nc2cnc(Oc3ccc(OC)cc3)nc21" .
Solution: active

Problem: Recorded test call requested for "O=Nc1c(-c2c(O)[nH]c3ccccc23)[nH]c2ccccc12"
Solution: active

Problem: How did this test come out for "COc1ccc(CNc2ncnc3ccc(-c4cccc(C#N)c4)cc23)c(OC)c1" ?
Solution: active
